assay: Tested for the half life period in dog; type: ADME, organism-based, Canis lupus familiaris; settings: in vivo
observation type: half-life (min)
// return numeric value only (unit: min, not printed)

Example cases with answers are listed next.
{"columns": ["compound", "half-life / min"],
 "data": [
  ["CC(C)(C)NC(=O)[C@@H]1CN(Cc2cccnc2)CCN1C[C@@H](O)C[C@@H](Cc1cccnc1)C(=O)NC1c2cccc(Cl)c2C[C@H]1O (single isomer, unassigned)", 23.9],
  ["CC(C)(C)NC(=O)[C@@H]1CN(Cc2cccnc2)CCN1C[C@@H](O)C[C@@H](Cc1ccccc1)C(=O)NC1c2cccc(F)c2C[C@H]1O (single isomer, unassigned)", 44.5],
  ["C[C@@H]1CC[C@@H](O)[C@@H]1NC(=O)[C@H](Cc1ccc(F)cc1)C[C@H](O)CN1CCN(Cc2cccnc2)C[C@H]1C(=O)NC(C)(C)C", 39.2]
]}

Sample C[C@@H]1CC[C@@H](O)C1NC(=O)[C@H](Cc1cccnc1)C[C@H](O)CN1CCN(Cc2cccnc2)C[C@H]1C(=O)NC(C)(C)C (single isomer, unassigned) ; half-life observed: 23.4

Input CC(C)(C)NC(=O)[C@@H]1CN(Cc2cccnc2)CCN1C[C@@H](O)C[C@@H](Cc1cccnc1)C(=O)NC1c2cccc(F)c2C[C@H]1O (single isomer, unassigned) . Output half-life: 28.7

The reported measurements were obtained from ChEMBL document CHEMBL1135057.
